Data origin: patent US6410558B1

# System: Gaeumannomyces graminis var. tritici (Ggt)
# testSummary: In vitro Assay: mycelial growth of Ggt on minimal media agar plates containing test compound
# Assay type: cell-based
# conditionsUsed: Gaeumannomyces graminis; 0.1 ppm in minimal media agar; dark, 19-20° C., 4 to 5 days; diameter of mycelial growth; read-out: In vitro (ppm) 0.1, Percent Inhibition
# Experimental: The test compounds (0.25 mL of an appropriate stock solution in acetone) are incorporated into 25 mL minimal media agar [(prepared by autoclaving a solution of 17.5 g Czapek Dox broth (Difco), 7.5 g purified agar or Bacto-agar (Difco), and 500 mL distilled/deionized water, and then adding 50 μL of 1 mg/mL thiamine hydrochloride and 50 μL of 1 mg/mL biotin in 5% ethanol] and plates are prepared. […]
This listing pairs compounds with measured inhibition at 0.1 ppm.
assayMetric: inhibition at 0.1 ppm (%)

{"compound": "CCN(CC)C(=O)c1ccccc1[Si](C)(C)C [Example 2, N,N-Diethyl-2-(trimethylsilyl)benzamide]", "targetOrSystem": "Gaeumannomyces graminis var. tritici (Ggt)", "qualifyingSign": "=", "reportedResult": 14}
{"compound": "C[Si](C)(C)c1cccc(Cl)c1C(=O)Nc1ccccc1[N+](=O)[O-] [Example 160]", "targetOrSystem": "Gaeumannomyces graminis var. tritici (Ggt)", "qualifyingSign": "=", "reportedResult": 17}
{"compound": "CCN(C(=O)c1ccccc1[Si](C)(C)C)C(OC)C(C)(C)C (centres unmarked) [Example 187]", "targetOrSystem": "Gaeumannomyces graminis var. tritici (Ggt)", "qualifyingSign": "=", "reportedResult": 13}
{"compound": "CCN(CC)C(=O)c1c(Cl)ccc(C)c1[Si](C)(C)C [Example 71]", "targetOrSystem": "Gaeumannomyces graminis var. tritici (Ggt)", "qualifyingSign": "=", "reportedResult": 14}
{"compound": "CCNC(=O)c1sc(C)c(C)c1[Si](C)(C)C [Example 286]", "targetOrSystem": "Gaeumannomyces graminis var. tritici (Ggt)", "qualifyingSign": "=", "reportedResult": 76}
{"compound": "CCN(CC)C(=O)c1c(F)cccc1[S+]([O-])C(C)(C)C (centres unmarked) [Example 195]", "targetOrSystem": "Gaeumannomyces graminis var. tritici (Ggt)", "qualifyingSign": "=", "reportedResult": 35}
{"compound": "CCN(C(C)=O)C(=O)c1c(Cl)cccc1[Si](C)(C)C [Example 47]", "targetOrSystem": "Gaeumannomyces graminis var. tritici (Ggt)", "qualifyingSign": "<", "reportedResult": 0}
{"compound": "CCNC(=O)c1sccc1[Si](C)(C)C [Example 248]", "targetOrSystem": "Gaeumannomyces graminis var. tritici (Ggt)", "qualifyingSign": "=", "reportedResult": 10}
{"compound": "CN(C(=O)c1cccc(F)c1[Si](C)(C)C)C(C)(C)C [Example 5]", "targetOrSystem": "Gaeumannomyces graminis var. tritici (Ggt)", "qualifyingSign": "<", "reportedResult": 0}
{"compound": "CCNC(=O)c1c(C)cccc1N(C)C(C)(C)C [Example 191]", "targetOrSystem": "Gaeumannomyces graminis var. tritici (Ggt)", "qualifyingSign": "=", "reportedResult": 60}
{"compound": "C=CCNC(=O)c1c(Cl)cccc1[Si](C)(C)C [Example 106]", "targetOrSystem": "Gaeumannomyces graminis var. tritici (Ggt)", "qualifyingSign": "=", "reportedResult": 95}
{"compound": "CCNC(=O)c1cccn1C[Si](C)(C)C [Example 253]", "targetOrSystem": "Gaeumannomyces graminis var. tritici (Ggt)", "qualifyingSign": "<", "reportedResult": 0}
{"compound": "C[Si](C)(C)c1cccc(Cl)c1C(=O)NCc1ccncc1 [Example 145]", "targetOrSystem": "Gaeumannomyces graminis var. tritici (Ggt)", "qualifyingSign": "<", "reportedResult": 0}
{"compound": "CCCN(CCC)C(=O)c1c(Cl)cccc1[Si](C)(C)C [Example 36]", "targetOrSystem": "Gaeumannomyces graminis var. tritici (Ggt)", "qualifyingSign": "=", "reportedResult": 26}
{"compound": "CCSC(=O)c1c(Cl)cccc1[Si](C)(C)C [Example 77]", "targetOrSystem": "Gaeumannomyces graminis var. tritici (Ggt)", "qualifyingSign": "=", "reportedResult": 13}
{"compound": "CCN(CC)C(=O)c1c(C(=O)OC(C)C)ccc(F)c1[Si](C)(C)C [Example 43]", "targetOrSystem": "Gaeumannomyces graminis var. tritici (Ggt)", "qualifyingSign": "<", "reportedResult": 0}
{"compound": "CCN(COC)C(=O)c1c(C)cccc1[Si](C)(C)C [Example 127]", "targetOrSystem": "Gaeumannomyces graminis var. tritici (Ggt)", "qualifyingSign": "<", "reportedResult": 0}
{"compound": "C[Si](C)(C)c1ccc(F)c([Si](C)(C)C)c1C(=O)N1CCCC1 [Example 118]", "targetOrSystem": "Gaeumannomyces graminis var. tritici (Ggt)", "qualifyingSign": "<", "reportedResult": 0}
{"compound": "CCNC(=O)c1sc(SC)cc1[Si](C)(C)C [Example 261]", "targetOrSystem": "Gaeumannomyces graminis var. tritici (Ggt)", "qualifyingSign": "=", "reportedResult": 14}
{"compound": "CCNC(=O)c1c(Cl)cccc1NC(C)(C)C [Example 192]", "targetOrSystem": "Gaeumannomyces graminis var. tritici (Ggt)", "qualifyingSign": "=", "reportedResult": 86}
